Item-by-item account of glass transition temperature
A number alone suffices; assume °C.

INSERT INTO assay_data (molecule, readoutname, readoutnumber) VALUES
  ('*Oc1ccc(Oc2ccc(C(=O)c3ccc(C(=O)c4ccc(*)cc4)cc3)cc2)cc1-c1ccc(S(=O)(=O)O)cc1 (repeat unit)', 'glass transition temperature', 174.00);

[ask] Reported glass transition temperature for *c1ccc(NC2CC(=O)N(c3ccc(-c4sc(-c5ccc(N6C(=O)CC(Nc7ccc(-c8nc(-c9ccc(/C=C/c%10ccc([N+](=O)[O-])cc%10)s9)[nH]c8*)cc7)C6=O)cc5)c(-c5ccccc5)c4-c4ccccc4)cc3)C2=O)cc1 (repeat unit) : what is it?
[reply] 304.00

[ask] For *c1ccc2c(c1)C(=O)N(c1cc(N3C(=O)c4ccc(C(*)(C(F)(F)F)C(F)(F)F)cc4C3=O)cc(C(F)(F)F)c1)C2=O (repeat unit) , what is its reported glass transition temperature?
[reply] 290.50

----------
readoutName: glass transition temperature (°C)
Use °C as the unit, but write only the number.

[ask] // returns reported glass transition temperature for input *CC(*)c1cc(C(F)(F)F)cc(C(F)(F)F)c1 (repeat unit)
[reply] 116.00

[ask] Name the recorded glass transition temperature for *OC(=O)OCCCCCCCCOC(=O)OC1COC2C(*)COC12 (repeat unit) .
[reply] 19.50

[ask] Looking for the measured glass transition temperature of *Nc1ccc(NC(=O)c2ccc(NC(=O)CCCCCCCCC(=O)Nc3ccc(C(*)=O)cc3)cc2)cc1C(=O)OCCCCCCCCCCCCCCCCCC (repeat unit) , can you help?
[reply] 280.00

[ask] // query glass transition temperature value for entry *CCCCCCCCCCOC(=O)CCCCCCCCCCCCCCCCC(=O)O* (repeat unit)
[reply] -17.00

----------
glass transition temperature: recorded values

Some entries whose results are on file:
INSERT INTO measurements (compound, result) VALUES
  ('*C(=O)Nc1ccc(-c2sc(-c3ccc(NC(=O)c4ccc5c(c4)C(=O)N(c4ccc(-c6sc(-c7ccc(N8C(=O)c9ccc(*)cc9C8=O)cc7)c(-c7ccccc7)c6-c6ccccc6)cc4)C5=O)cc3)c(-c3ccccc3)c2-c2ccccc2)cc1 (repeat unit)', '338.00 °C'),
  ('*CCCCOCCCCOCCCCOC(=O)c1ccc(/N=C/c2cc(OCCC(C)CCCC(C)C)c(/C=N/c3ccc(C(=O)O*)cc3)cc2OCCC(C)CCCC(C)C)cc1 (repeat unit)', '-4.80 °C');

[ask] Value lookup for glass transition temperature; key = *c1cccc(C(=O)Nc2ccc(Oc3ccc(NC(=O)c4cccc(N5C(=O)c6ccc(-c7ccc8c(c7)C(=O)N(*)C8=O)cc6C5=O)c4)cc3)cc2)c1 (repeat unit)
[reply] 253.00 °C

[ask] Dear colleague, I am looking for the recorded glass transition temperature of the following compound: *CC(O)COc1ccc(C2CC(C(C)C)CCC2(C)c2ccc(O*)cc2)cc1 (repeat unit)
[reply] 175.00 °C

[ask] Give the measured glass transition temperature of *O[Si](*)(C)CCCCC(=O)OCCCCCCCCCCC(F)(F)C(F)(F)C(F)(F)C(F)(F)C(F)(F)C(F)(F)C(F)(F)C(F)(F)F (repeat unit) .
[reply] -78.00 °C

[ask] Which glass transition temperature is reported for this compound? *Oc1ccc(-c2ccc(NC(=O)c3cc(C(=O)Nc4ccc(-c5ccc(Oc6ccc(C(c7ccc(*)cc7)(C(F)(F)F)C(F)(F)F)cc6)c(C(F)(F)F)c5)cc4)cc(C(C)(C)C)c3)cc2)cc1C(F)(F)F (repeat unit)
[reply] 251.50 °C

[ask] Find the recorded glass transition temperature belonging to *c1ccc(N2C(=O)c3ccc(Oc4ccc(C(C)(C)c5ccc(Oc6ccc7c(c6)C(=O)N(c6ccc8[nH]c(*)nc8c6)C7=O)cc5)cc4)cc3C2=O)cc1 (repeat unit) and report it.
[reply] 324.00 °C

[ask] Entry *CC(*)(C)C(=O)OCCCCCCCCCCCCCC (repeat unit) : reported glass transition temperature = ?
[reply] -72.00 °C

[ask] Quick one: glass transition temperature of *CCOc1ccc(C(=O)Nc2cc(NC(=O)c3ccc(O*)cc3)cc(-c3nc4ccccc4[nH]3)c2)cc1 (repeat unit) ?
[reply] 275.00 °C

[ask] Requested field: glass transition temperature. Item: *CC(C)(C)COC(=O)c1ccc(-c2ccc(-c3ccc(C(=O)O*)cc3)cc2)cc1 (repeat unit)
[reply] 100.00 °C

[ask] What value of glass transition temperature has been reported for the following compound? *C1(C)CC(*)(C)C(=O)N(C)C1=O (repeat unit)
[reply] 170.00 °C
